System: human breast carcinoma MDA-MB-231 cells
EXPERIMENT NOTES: MTT cytotoxicity assay, MDA-MB-231
Type: cell-based
MEASUREMENT CONDITIONS: 72-hour treatment
PARAMETER MEASURED: pIC50
# pIC50 = -log10(concentration in molar units)

Q. Give pIC50 only, for O=c1[nH]c(=O)n([C@H]2C[C@H](O)[C@@H](CO)O2)cc1F [Floxuridine (FdU), 5-fluoro-2′-deoxyuridine] , using human breast carcinoma MDA-MB-231 cells data.
A. 4.85

Each recorded value in this set is attributed to patent US20140017330A1.
